- method: Pharmacokinetic study in ICR mice
- Format: in vivo
- run parameters: mouse; male ICR mice, IP, 30 mg/kg, plasma
- Method: To evaluate the in vivo pharmacokinetic (PK) profile of the GDAz‐3 and explore its therapeutic potential, a single intraperitoneal (IP) injection (30 mg kg^−1) was conducted in male ICR mice. Plasma samples were collected at predetermined time points and analyzed using LC‐MS/MS. The tested compound GDAz‐3 was IP administered to ICR mice (male, n = 3 per time‐point). […]

{"molecule": "COc1ccc(-c2nc(-c3cc(C(F)(F)F)cc(C(F)(F)F)c3)n(Cc3ccc(C(=O)NCCOCCOCCOCCn4cc(COc5ccc(N(C(=O)CCl)C(C(=O)NCCc6ccccc6)c6cccs6)cc5Cl)nn4)cc3)c2-c2ccc(OC)cc2)cc1 (stereo not shown)", "MRT inf": "15.5 h"}

---

- Tested on: HT1080 cells
- method: Cell viability CCK-8 assay
- Type: cell-based, human
- run parameters: Homo sapiens, HT-1080, CCK-8, 48 h, read-out: IC50 (cytotoxicity)
experimental endpoint: IC50 (nM)

{"compound": "COc1ccc(-c2nc(-c3cc(C(F)(F)F)cc(C(F)(F)F)c3)n(Cc3ccc(C(=O)NCCOCCn4cc(COc5ccc(N(C(=O)CCl)C(C(=O)NCCc6ccccc6)c6cccs6)cc5Cl)nn4)cc3)c2-c2ccc(OC)cc2)cc1 (stereo not drawn)", "value qualifier": "=", "quantitative result": 21700}
{"compound": "COc1ccc(-c2nc(-c3cc(C(F)(F)F)cc(C(F)(F)F)c3)n(Cc3ccc(C(=O)NCCOCCOCCOCCOCCOCCn4cc(COc5ccc(N(C(=O)CCl)C(C(=O)NCCc6ccccc6)c6cccs6)cc5Cl)nn4)cc3)c2-c2ccc(OC)cc2)cc1 (stereo not drawn)", "value qualifier": "=", "quantitative result": 210}
{"compound": "NCCOCCOCCOCCn1cc(COc2ccc(N(C(=O)CCl)C(C(=O)NCCc3ccccc3)c3cccs3)cc2Cl)nn1 (stereo not drawn)", "value qualifier": "=", "quantitative result": 9100}
{"compound": "COc1ccc(-c2nc(-c3cc(C(F)(F)F)cc(C(F)(F)F)c3)n(Cc3ccc(C(=O)NCC4CCN(C(=O)Cn5cc(COc6ccc(N(C(=O)CCl)C(C(=O)NCCc7ccccc7)c7cccs7)cc6Cl)nn5)CC4)cc3)c2-c2ccc(OC)cc2)cc1 (stereo not drawn)", "value qualifier": ">", "quantitative result": 30000}
{"compound": "COc1ccc(-c2nc(-c3cc(C(F)(F)F)cc(C(F)(F)F)c3)n(Cc3ccc(C(=O)NCCOCCOCCOCCOCCn4cc(COc5ccc(N(C(=O)CCl)C(C(=O)NCCc6ccccc6)c6cccs6)cc5Cl)nn4)cc3)c2-c2ccc(OC)cc2)cc1 (stereo not drawn)", "value qualifier": "=", "quantitative result": 390}
{"compound": "COc1ccc(-c2nc(-c3cc(C(F)(F)F)cc(C(F)(F)F)c3)n(Cc3ccc(C(=O)NCCCCCCNC(=O)Cn4cc(COc5ccc(N(C(=O)CCl)C(C(=O)NCCc6ccccc6)c6cccs6)cc5Cl)nn4)cc3)c2-c2ccc(OC)cc2)cc1 (stereo not drawn)", "value qualifier": ">", "quantitative result": 30000}
{"compound": "COc1ccc(-c2nc(-c3cc(C(F)(F)F)cc(C(F)(F)F)c3)n(Cc3ccc(C(=O)NCCNC(=O)Cn4cc(COc5ccc(N(C(=O)CCl)C(C(=O)NCCc6ccccc6)c6cccs6)cc5Cl)nn4)cc3)c2-c2ccc(OC)cc2)cc1 (stereo not drawn)", "value qualifier": "=", "quantitative result": 350}
{"compound": "COc1ccc(-c2nc(-c3cc(C(F)(F)F)cc(C(F)(F)F)c3)n(Cc3ccc(C(=O)NC4CCN(C(=O)Cn5cc(COc6ccc(N(C(=O)CCl)C(C(=O)NCCc7ccccc7)c7cccs7)cc6Cl)nn5)CC4)cc3)c2-c2ccc(OC)cc2)cc1 (stereo not drawn)", "value qualifier": ">", "quantitative result": 30000}
{"compound": "COc1ccc(-c2nc(-c3cc(C(F)(F)F)cc(C(F)(F)F)c3)n(Cc3ccc(C(=O)N4CCN(C(=O)Cn5cc(COc6ccc(N(C(=O)CCl)C(C(=O)NCCc7ccccc7)c7cccs7)cc6Cl)nn5)CC4)cc3)c2-c2ccc(OC)cc2)cc1 (stereo not drawn)", "value qualifier": "=", "quantitative result": 120}
